All figures here come from ChEMBL document CHEMBL4406824.

tested on: Mycobacterium kansasii; assay: Antimycobacterial activity against Mycobacterium kansasii 235/80 after 21 days; assay type: functional; conditions: 235/80, 504 h
MIC by entry:

structure.smiles: O=C(NCc1ccccc1)Oc1ccc(Cl)cc1C(=O)Nc1ccc(Cl)cc1
MIC: 16 µM
//
structure.smiles: O=C(NCc1ccccc1)Oc1ccc(Cl)cc1C(=O)Nc1ccc(C(F)(F)F)cc1
MIC: 16 µM
//
structure.smiles: O=C(NC1CCCCC1)Oc1ccc(Cl)cc1C(=O)Nc1ccc(Cl)cc1
MIC: 32 µM
//
structure.smiles: O=C(NCCc1ccccc1)Oc1ccc(Cl)cc1C(=O)Nc1ccc(F)cc1
MIC: 16 µM
//
structure.smiles: Oc1ccc(Cl)cc1
MIC: > 250 µM
//
structure.smiles: O=C(NC12CC3CC(CC(C3)C1)C2)Oc1ccccc1C(=O)Nc1ccccc1
MIC: 125 µM
//
structure.smiles: O=C(NC1CCCCC1)Oc1ccccc1C(=O)Nc1ccccc1
MIC: 250 µM
//
structure.smiles: O=C(NC1CCCCC1)Oc1ccc(Cl)cc1C(=O)Nc1ccc(Br)cc1
MIC: 8 µM
//
structure.smiles: O=C(Nc1ccccc1)Oc1ccc(Cl)cc1
MIC: 500 µM
//
structure.smiles: O=C(NCc1ccccc1)Oc1ccccc1C(=O)Nc1ccccc1
MIC: 250 µM

For this molecule ( O=C(Nc1ccccc1)Oc1ccccc1C(=O)Nc1ccccc1 ), measured MIC is 250 µM

For this molecule ( O=C(NCc1ccccc1)Oc1ccc(Cl)cc1C(=O)Nc1ccc(F)cc1 ), measured MIC is 32 µM

For this molecule ( O=C(NC1CCCCC1)Oc1ccc(Cl)cc1C(=O)Nc1ccc(C(F)(F)F)cc1 ), measured MIC is 8 µM

For this molecule ( O=C(NCc1ccccc1)Oc1ccc(Cl)cc1C(=O)Nc1ccc(Br)cc1 ), measured MIC is 8 µM

For this molecule ( O=C(NCCc1ccccc1)Oc1ccc(Cl)cc1C(=O)Nc1ccc(Br)cc1 ), measured MIC is 8 µM

For this molecule ( O=C(NC12CC3CC(CC(C3)C1)C2)Oc1ccc(Cl)cc1C(=O)Nc1ccc(C(F)(F)F)cc1 ), measured MIC is 4 µM

For this molecule ( Nc1ccc(C(=O)O)c(O)c1 ), measured MIC is > 1000 µM

For this molecule ( NNC(=O)c1ccncc1 ), measured MIC is > 250 µM
